B1: PDZK1 (parent)
chain: FQAKKIPIVSSLADPLDTPPDSKE

Variants of: B1
assayText: protein stability index of a GFP-peptide fusion (GPS, HEK-293T) (PSI 1-6); higher = more stable;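 note: lentivirally expressed fusions sorted by FACS into six bins by GFP to DsRed ratio, PSI derived from sequencing read proportions per bin multiplied by bin number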
particulars: c terminus: a fixed tail appended
endpointName: protein stability index
Could you respond with only the numeric value?

variantSpec: P19V
endpointName: protein stability index
readoutNumber: 3.54

Task item: Given "D14V" , state its recorded protein stability index.
Reply: 4.1

Task item: Given "T18F" , state its recorded protein stability index.
Reply: 3.55

Task item: Given "T18K" , state its recorded protein stability index.
Reply: 3.81

Task item: Given "P15E" , state its recorded protein stability index.
Reply: 3.48

Task item: Given "P20W" , state its recorded protein stability index.
Reply: 2.62

Task item: Given "P20I" , state its recorded protein stability index.
Reply: 3.61

Task item: Given "P19C" , state its recorded protein stability index.
Reply: 3.53

Task item: Given "P19M" , state its recorded protein stability index.
Reply: 3.72

Task item: Given "P20C" , state its recorded protein stability index.
Reply: 3.94

Task item: Given "T18H" , state its recorded protein stability index.
Reply: 3.29

Task item: Given "T18M" , state its recorded protein stability index.
Reply: 3.73
